experimentalSystem: Grb2 SH2 (UniProt P62993)
Sequence (P62993 whole entry, looked up): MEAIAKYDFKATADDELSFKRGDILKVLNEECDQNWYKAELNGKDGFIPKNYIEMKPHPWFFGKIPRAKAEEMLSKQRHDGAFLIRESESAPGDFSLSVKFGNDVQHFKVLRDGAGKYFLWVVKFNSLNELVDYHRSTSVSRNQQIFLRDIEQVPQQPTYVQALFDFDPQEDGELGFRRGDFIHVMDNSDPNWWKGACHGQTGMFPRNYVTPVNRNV
procedureDetails: SH2 binding enrichment of the phosphorylated peptide, bacterial display (enrichment ratio); higher = better substrate or ligand; peptides without Tyr show the background
Each entry below lists one item and its recorded SH2 binding enrichment value.
Lab note: record the figure alone, no unit after it.

1) VDSIEYEVASQ [SLC7A7_Y7_T5I]: 0.793
2) AFLGEYIPTVF [RAC2_Y32_P29L]: 0.922
3) QDEPTYARSSK [PEAK1_Y616_H611Q]: 0.816
4) GTPVMYTYDEY [COL10A1_Y623]: 0.954

-- ask Dear colleague, I am looking for the recorded SH2 binding enrichment of the following sequence: PGLSSYGVPGS [FLNB_Y1530_A1534G]
-- reply 0.934

-- ask Dear colleague, I am looking for the recorded SH2 binding enrichment of the following sequence: ANVIRYFPTQA [SLC25A4_Y81]
-- reply 1.09

-- ask Dear colleague, I am looking for the recorded SH2 binding enrichment of the following sequence: DISEPYKVYRI [IRF8_Y107]
-- reply 0.901

-- ask Dear colleague, I am looking for the recorded SH2 binding enrichment of the following sequence: LFDPDYMKVIL [CYP4A22_Y104_YF]
-- reply 0.775

-- ask Dear colleague, I am looking for the recorded SH2 binding enrichment of the following sequence: LSVEIHDRREY [ITGB7_Y753_Y753H]
-- reply 0.733

-- ask Dear colleague, I am looking for the recorded SH2 binding enrichment of the following sequence: RIVEIYSRSLQ [GCH1_Y175_R178S]
-- reply 0.944

-- ask Dear colleague, I am looking for the recorded SH2 binding enrichment of the following sequence: QSHKVYFQHLL [POR_Y604_V605F]
-- reply 0.836

-- ask Dear colleague, I am looking for the recorded SH2 binding enrichment of the following sequence: SVIKEYQIRQV [USH2A_Y3623_G3618S]
-- reply 0.88

-- ask Dear colleague, I am looking for the recorded SH2 binding enrichment of the following sequence: RNFVRYVQGLK [VWF_Y1400]
-- reply 0.669

* * *

experimentalSystem: SHP2-C SH2
procedureDetails: SH2 binding enrichment of the phosphorylated peptide, bacterial display (enrichment ratio); higher = better substrate or ligand; peptides without Tyr show the background
measureName: SH2 binding enrichment
Lab note: record the figure alone, no unit after it.

1. SSPVLYLSPET [TJP1_Y931_P930L]: 0.901
2. HNLDFYKETTN [FGFR3_Y648_K650E_YF]: 1.39
3. KKLAEYGPQGR [CLCA1_Y147]: 0.631
4. QNAGDYFDLFG [PTPN11_Y62_T59A_YF]: 0.733

-- ask Return SH2 binding enrichment measured with SHP2-C SH2 given this sequence: AELVRYFMEHH [PTPN11_Y80_Q79R_YF]
-- reply 0.632

* * *

experimentalSystem: Fyn (UniProt P06241)
Sequence (P06241 whole entry, looked up): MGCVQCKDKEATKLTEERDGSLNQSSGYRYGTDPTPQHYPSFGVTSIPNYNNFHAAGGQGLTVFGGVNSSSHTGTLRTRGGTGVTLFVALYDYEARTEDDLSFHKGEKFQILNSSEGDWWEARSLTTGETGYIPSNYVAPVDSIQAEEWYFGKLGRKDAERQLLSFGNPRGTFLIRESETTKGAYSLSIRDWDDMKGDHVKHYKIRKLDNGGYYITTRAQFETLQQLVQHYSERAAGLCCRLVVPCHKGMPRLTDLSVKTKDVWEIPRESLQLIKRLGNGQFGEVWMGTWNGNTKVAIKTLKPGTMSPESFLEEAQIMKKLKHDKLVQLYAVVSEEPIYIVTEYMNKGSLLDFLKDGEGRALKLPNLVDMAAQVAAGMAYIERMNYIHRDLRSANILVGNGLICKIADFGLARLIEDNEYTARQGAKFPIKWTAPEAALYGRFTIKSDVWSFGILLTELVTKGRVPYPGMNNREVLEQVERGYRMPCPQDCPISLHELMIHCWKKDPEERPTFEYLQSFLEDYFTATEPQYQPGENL
procedureDetails: phosphorylation enrichment, bacterial display (enrichment ratio); higher = better substrate or ligand; peptides without Tyr show the background
measureName: phosphorylation enrichment

Worked set:
1. DAKAIYDFTDT [PDK1_Y136]: 7.96
2. SSFPDYLAAVD [GLB1_Y154_D151Y_YF]: 0.586
3. MKGDYYRYLAE [YWHAG_Y131]: 0.741
4. AKLNIYKRKVE [VWA3B_Y918]: 0.53
5. DVELLYPVKEK [EPHX1_Y283]: 0.404
6. LSDGPYSNSFE [EPOR_Y485_P488S_YF]: 1.23
7. APGNAYGDAGF [SYP_Y250_D248N_YF]: 0.339
8. CQASLYPSNHD [LRIG1_Y996_G993A]: 0.571

-- ask Return phosphorylation enrichment measured with Fyn (UniProt P06241) given this sequence: ISSLRYKLLEE [TRPC6_Y896_E897K]
-- reply 0.503

-- ask Return phosphorylation enrichment measured with Fyn (UniProt P06241) given this sequence: SSSGGYGGGYG [KRT19_Y61_A60G]
-- reply 0.352

-- ask Return phosphorylation enrichment measured with Fyn (UniProt P06241) given this sequence: KNRDVSSSDFF [USP24_Y2134_Y2134S_YF]
-- reply 0.432

-- ask Return phosphorylation enrichment measured with Fyn (UniProt P06241) given this sequence: PLQNTYNYNVL [SLC4A1_Y553_K551N]
-- reply 0.65

-- ask Return phosphorylation enrichment measured with Fyn (UniProt P06241) given this sequence: LIGRRYDDPEV [HSPA9_Y128]
-- reply 0.836

* * *

experimentalSystem: MERTK (UniProt Q12866)
Sequence (Q12866 whole entry, looked up): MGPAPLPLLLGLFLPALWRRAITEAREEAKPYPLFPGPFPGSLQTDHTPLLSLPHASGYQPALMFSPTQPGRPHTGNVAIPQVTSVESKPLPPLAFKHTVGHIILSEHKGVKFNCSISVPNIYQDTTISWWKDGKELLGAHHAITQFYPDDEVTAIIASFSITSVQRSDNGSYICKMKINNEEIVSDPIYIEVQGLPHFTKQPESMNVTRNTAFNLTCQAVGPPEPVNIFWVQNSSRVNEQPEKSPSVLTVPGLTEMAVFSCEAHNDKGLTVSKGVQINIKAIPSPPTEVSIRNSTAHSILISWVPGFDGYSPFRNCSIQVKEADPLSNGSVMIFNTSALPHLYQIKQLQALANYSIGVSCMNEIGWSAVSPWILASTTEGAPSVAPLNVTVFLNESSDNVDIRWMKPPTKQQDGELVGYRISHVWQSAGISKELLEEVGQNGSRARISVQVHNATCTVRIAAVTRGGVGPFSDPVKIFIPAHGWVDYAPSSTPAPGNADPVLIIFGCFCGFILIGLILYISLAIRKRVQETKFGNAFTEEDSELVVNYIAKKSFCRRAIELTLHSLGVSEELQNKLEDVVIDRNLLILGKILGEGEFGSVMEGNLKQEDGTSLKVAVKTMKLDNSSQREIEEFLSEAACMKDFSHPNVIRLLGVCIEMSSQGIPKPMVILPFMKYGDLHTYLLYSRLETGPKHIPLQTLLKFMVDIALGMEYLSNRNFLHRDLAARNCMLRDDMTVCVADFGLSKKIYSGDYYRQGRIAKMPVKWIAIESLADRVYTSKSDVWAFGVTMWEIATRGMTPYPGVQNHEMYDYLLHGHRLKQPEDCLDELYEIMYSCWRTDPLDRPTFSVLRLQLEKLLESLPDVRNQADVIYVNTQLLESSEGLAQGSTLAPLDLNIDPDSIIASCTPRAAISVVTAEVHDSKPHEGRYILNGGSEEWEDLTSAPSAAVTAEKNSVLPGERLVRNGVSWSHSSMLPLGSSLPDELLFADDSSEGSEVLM
procedureDetails: phosphorylation enrichment, bacterial display (enrichment ratio); higher = better substrate or ligand; peptides without Tyr show the background
Each entry below lists one item and its recorded phosphorylation enrichment value.

-- ask Return phosphorylation enrichment measured with MERTK (UniProt Q12866) given this sequence: ILLAGCLVMVI [SLC28A3_Y113_Y113C]
-- reply 0.486

-- ask Return phosphorylation enrichment measured with MERTK (UniProt Q12866) given this sequence: QSKGIYYVQLE [MGAT4B_Y262]
-- reply 8.64

-- ask Return phosphorylation enrichment measured with MERTK (UniProt Q12866) given this sequence: KIVATYRLCSE [DNAH3_Y1586]
-- reply 0.565

* * *

experimentalSystem: EPHB2 (UniProt P29323)
Sequence (P29323 whole entry, looked up): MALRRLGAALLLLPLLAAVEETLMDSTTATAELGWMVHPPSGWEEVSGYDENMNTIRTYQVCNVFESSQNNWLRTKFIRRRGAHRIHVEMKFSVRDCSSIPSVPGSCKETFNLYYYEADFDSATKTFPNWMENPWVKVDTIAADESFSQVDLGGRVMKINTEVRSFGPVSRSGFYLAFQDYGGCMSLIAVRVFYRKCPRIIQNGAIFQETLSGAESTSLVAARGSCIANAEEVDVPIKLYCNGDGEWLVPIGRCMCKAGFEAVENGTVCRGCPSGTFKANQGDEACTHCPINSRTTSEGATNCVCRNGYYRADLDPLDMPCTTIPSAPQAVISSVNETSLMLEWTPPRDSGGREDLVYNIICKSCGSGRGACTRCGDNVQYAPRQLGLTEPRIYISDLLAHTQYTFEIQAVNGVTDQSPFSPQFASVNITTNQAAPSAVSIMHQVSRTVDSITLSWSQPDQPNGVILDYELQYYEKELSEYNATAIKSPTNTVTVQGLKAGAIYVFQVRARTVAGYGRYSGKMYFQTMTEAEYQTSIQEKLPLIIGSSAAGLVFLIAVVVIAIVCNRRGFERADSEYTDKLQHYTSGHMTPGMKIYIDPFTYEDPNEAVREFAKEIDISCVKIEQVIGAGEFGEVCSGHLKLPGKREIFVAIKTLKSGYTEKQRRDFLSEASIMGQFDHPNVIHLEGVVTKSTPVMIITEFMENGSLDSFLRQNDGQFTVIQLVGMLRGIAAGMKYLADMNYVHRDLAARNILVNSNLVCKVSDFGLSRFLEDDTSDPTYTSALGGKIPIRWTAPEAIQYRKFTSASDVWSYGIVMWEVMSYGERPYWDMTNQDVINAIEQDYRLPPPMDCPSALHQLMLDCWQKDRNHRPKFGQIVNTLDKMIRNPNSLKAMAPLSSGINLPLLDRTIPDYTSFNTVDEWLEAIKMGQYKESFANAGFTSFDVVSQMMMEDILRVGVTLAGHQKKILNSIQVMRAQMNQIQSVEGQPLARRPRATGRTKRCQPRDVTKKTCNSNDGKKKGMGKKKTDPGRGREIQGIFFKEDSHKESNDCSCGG
procedureDetails: phosphorylation enrichment, bacterial display (enrichment ratio); higher = better substrate or ligand; peptides without Tyr show the background
Decision: phosphorylation enrichment compared against 0.5; not below it gives YES, below it gives NO.

1. DHCNQYEQQKM [CHD7_Y75_Y72C]: YES
2. MSRDIYSTDYY [NTRK1_Y676]: YES
3. ADRLEYSRTGL [MMUT_Y287_G284R]: YES
4. RTLSEYARPHV [RERE_Y1259]: YES
5. KILTHYKRPHT [KMT2D_Y5349]: NO
6. QSKGIYYVQLE [MGAT4B_Y262]: YES
7. ALAAPYVLYPS [CEFIP_Y1332_G1337S]: NO
8. RNVLVYDKLNV [ROR2_Y624]: YES
9. EYITRYIDSLK [PSMA7_Y110_A112D]: YES
10. DSKIRYLSADS [TTF1_Y476_E473K]: YES

-- ask Assess whether reported phosphorylation enrichment for ILGTYYETGSI [PAX2_Y73_R71T] sits at 0.5 or higher.
-- reply YES

-- ask Assess whether reported phosphorylation enrichment for GEETDYTPVWC [UROD_Y30] sits at 0.5 or higher.
-- reply YES

-- ask Assess whether reported phosphorylation enrichment for LESTLYESSVV [TRPV4_Y91] sits at 0.5 or higher.
-- reply YES

-- ask Assess whether reported phosphorylation enrichment for PTDGVYVMPTV [MYO7A_Y1668_S1666G] sits at 0.5 or higher.
-- reply YES

-- ask Assess whether reported phosphorylation enrichment for LATINYPFEKG [NDUFS8_Y84_P79L] sits at 0.5 or higher.
-- reply NO

-- ask Assess whether reported phosphorylation enrichment for SNMPTYSGHFT [GRIN2A_Y1224] sits at 0.5 or higher.
-- reply YES

-- ask Assess whether reported phosphorylation enrichment for LNCDRYSVGLL [PDE6A_Y275] sits at 0.5 or higher.
-- reply YES

-- ask Assess whether reported phosphorylation enrichment for NRLTDYYEPLL [BBS10_Y536] sits at 0.5 or higher.
-- reply YES

-- ask Assess whether reported phosphorylation enrichment for KANEYYPVVII [ADAMTS18_Y765_L769I] sits at 0.5 or higher.
-- reply YES

-- ask Assess whether reported phosphorylation enrichment for DVVKDCAFVHM [RBM14_Y114_Y114C] sits at 0.5 or higher.
-- reply YES

-- ask Assess whether reported phosphorylation enrichment for TLMNAYSSRCH [KIF11_Y231_S235C] sits at 0.5 or higher.
-- reply YES

-- ask Assess whether reported phosphorylation enrichment for KTDKKYLMIKE [BAG3_Y451_E455K] sits at 0.5 or higher.
-- reply NO

-- ask Assess whether reported phosphorylation enrichment for CKSVHYDLVFL [COL22A1_Y37] sits at 0.5 or higher.
-- reply YES

-- ask Assess whether reported phosphorylation enrichment for DYYDLYGGEKL [PTPN11_Y66_F71L] sits at 0.5 or higher.
-- reply YES

-- ask Assess whether reported phosphorylation enrichment for VATRWYRSPEP [CDKL5_Y177_L182P] sits at 0.5 or higher.
-- reply YES

-- ask Assess whether reported phosphorylation enrichment for AMIADYMFWLG [SPATA16_Y290] sits at 0.5 or higher.
-- reply YES

-- ask Assess whether reported phosphorylation enrichment for IKGIRYLHHRG [GUCY2D_Y656] sits at 0.5 or higher.
-- reply NO

-- ask Assess whether reported phosphorylation enrichment for PGLSSYGVPGS [FLNB_Y1530_A1534G] sits at 0.5 or higher.
-- reply YES

-- ask Assess whether reported phosphorylation enrichment for KNRDVSSSDFF [USP24_Y2134_Y2134S_YF] sits at 0.5 or higher.
-- reply NO

-- ask Assess whether reported phosphorylation enrichment for IGKAGYTDKVV [ENO1_Y236] sits at 0.5 or higher.
-- reply NO
